Test system: HSV-2 (G)
Experiment: HSV-2 infection of primary monocyte/macrophage (M/M) cultures
Format: cell-based
Conditions: Human alphaherpesvirus 2, 144 h; 0.016 µg/ml, M/M, day 6; read-out: Inhibition of viral replication (% to control)
Value kind: inhibition at 0.016 µg/mL (%)
// note: answer is a bare numeric in %

Example entries begin here.
compound=C[C@H](Cn1cnc2c(N)ncnc21)OCP(=O)(O)O endpoint_value=7
compound=Nc1cc(OCCOCP(=O)(O)O)nc(N)n1 endpoint_value=3.5
compound="Nc1nc2c(ncn2COCCO)c(=O)[nH]1 [Acyclovir, 9-(2-hydroxyethyloxymethyl)guanine]" endpoint_value=100

Read the next record carefully.
Readout inhibition at 0.016 µg/mL for Nc1ncnc2c1ncn2CCOCP(=O)(O)O , test system HSV-2 (G), was 49
